# Test system: L1210 (1565)
# protocol.summary: Relative resistance ratio evaluated for murine tumor L1210:1565 cells with 10% fetal calf serum as supplement
# Type: functional, Mus musculus
readout.kind: Relative resistance

>>> numeric_value("C#CCN(Cc1cc2c(O)nc(C)nc2cc1C)c1ccc(C(=O)N[C@@H](CCC[S+]([O-])c2n[nH]c(O)n2)C(=O)O)c(F)c1 (some centres undefined)")
8.7
>>> numeric_value("C#CCN(Cc1cc2c(O)nc(C)nc2cc1C)c1ccc(C(=O)NC(CCCC[S+]([O-])c2nn[nH]n2)C(=O)O)c(F)c1 (centres undefined)")
10
>>> numeric_value("C#CCN(Cc1cc2c(O)nc(C)nc2cc1C)c1ccc(C(=O)NC(CCCCCC(=O)O)C(=O)O)c(F)c1 (centres undefined)")
43
>>> numeric_value("C#CCN(Cc1cc2c(O)nc(C)nc2cc1C)c1ccc(C(=O)N[C@@H](CCCS(=O)(=O)NC(C)=O)C(=O)O)c(F)c1")
10.3
